Numbers sourced from paper PMC4589404.

Test target: ehDmc1 (Entamoeba histolytica)
Sequence (C4LTR6 1-347): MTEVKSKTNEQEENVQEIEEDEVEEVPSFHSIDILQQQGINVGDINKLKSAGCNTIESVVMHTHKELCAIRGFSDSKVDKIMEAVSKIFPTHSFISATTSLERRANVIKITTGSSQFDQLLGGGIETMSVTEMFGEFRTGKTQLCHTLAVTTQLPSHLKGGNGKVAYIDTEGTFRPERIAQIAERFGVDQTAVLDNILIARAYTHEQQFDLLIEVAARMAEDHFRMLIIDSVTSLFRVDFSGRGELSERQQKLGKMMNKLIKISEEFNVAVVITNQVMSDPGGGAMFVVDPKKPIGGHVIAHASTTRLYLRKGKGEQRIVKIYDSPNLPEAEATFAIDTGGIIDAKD
Reported endpoint: pIC50
Notebook: values listed as pIC50 are -log10 of the concentration (mol/L).

Ask: What pIC50 value was documented for this compound, O=S(=O)(O)c1cc(N=C=S)ccc1C=Cc1ccc(N=C=S)cc1S(=O)(=O)O [DIDS] ?
Result: 5.35
